The values you see were collected from ChEMBL document CHEMBL1143546.

target: UniProt:P06537; assay: Inhibition of mouse glutamine synthetase by GR-mediated transactivation in C2C12 cells; type: cell-based
experimental-endpoint: log10 EC50 (log10 of the value in nM)
// do not treat as linear: log10 of EC50, unit nM

// query Please give the measured log10 EC50 for this compound: C[C@]12Cc3cnn(-c4ccc(F)cc4)c3C=C1CCC[C@@H]2[C@H](O)c1ccc(F)nc1
// result 1.36

// query Repeat for the following compound: C[C@]12Cc3cnn(-c4ccc(F)cc4)c3C=C1CCC[C@@H]2[C@@H](O)c1ccc(F)nc1
// result 2.41

// query Follow-up entry: C[C@]12Cc3cnn(-c4ccc(F)cc4)c3C=C1CCC[C@@H]2[C@@H](O)c1cc2ccccc2s1
// result 3.08

// query Also C[C@]12Cc3cnn(-c4ccc(F)cc4)c3C=C1CCC[C@@H]2[C@H](O)c1csc2ccccc12 , if possible.
// result 0.48

// query Same thing, different compound: C[C@]12Cc3cnn(-c4ccc(F)cc4)c3C=C1CCC[C@@H]2[C@](C)(O)c1ccsc1
// result 0.92

// query Consider next the compound C[C@]12Cc3cnn(-c4ccc(F)cc4)c3C=C1CCC[C@@H]2[C@@H](O)Cc1ccc(F)cc1 in the same way.
// result 1.23

// query // repeat for C[C@]12Cc3cnn(-c4ccc(F)cc4)c3C=C1CCC[C@@H]2[C@@H](O)c1ccc(Cl)s1 and report
// result 1.53

====

Target: UniProt P04150
Sequence (P04150 whole entry): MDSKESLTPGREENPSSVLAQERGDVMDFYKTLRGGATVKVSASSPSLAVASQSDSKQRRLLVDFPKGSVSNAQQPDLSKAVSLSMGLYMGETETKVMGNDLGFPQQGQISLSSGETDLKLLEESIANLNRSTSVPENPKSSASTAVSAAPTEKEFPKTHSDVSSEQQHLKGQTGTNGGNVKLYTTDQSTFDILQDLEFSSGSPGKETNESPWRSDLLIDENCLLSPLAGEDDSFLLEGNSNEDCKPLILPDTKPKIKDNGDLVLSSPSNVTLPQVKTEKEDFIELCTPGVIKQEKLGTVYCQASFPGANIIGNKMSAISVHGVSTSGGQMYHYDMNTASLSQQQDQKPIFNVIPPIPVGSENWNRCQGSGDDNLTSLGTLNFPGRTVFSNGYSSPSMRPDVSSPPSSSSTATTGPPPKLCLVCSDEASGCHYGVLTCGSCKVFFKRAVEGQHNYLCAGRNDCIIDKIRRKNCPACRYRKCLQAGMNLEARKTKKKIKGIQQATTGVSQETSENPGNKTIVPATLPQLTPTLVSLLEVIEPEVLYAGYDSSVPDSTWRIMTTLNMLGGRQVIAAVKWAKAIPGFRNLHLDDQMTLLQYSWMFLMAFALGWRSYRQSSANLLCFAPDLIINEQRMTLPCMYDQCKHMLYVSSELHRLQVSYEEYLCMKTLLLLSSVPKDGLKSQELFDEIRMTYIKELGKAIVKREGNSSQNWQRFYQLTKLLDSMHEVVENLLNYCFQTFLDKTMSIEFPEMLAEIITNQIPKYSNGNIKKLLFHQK
pIC50: −log10 of the molar value.
// Not met strictly below 8 in pIC50; Met otherwise

// query Record C[C@]12Cc3cnn(-c4ccc(F)cc4)c3C=C1CCC[C@@H]2[C@@H](O)c1ccncc1 ; criterion: pIC50 no lower than 8. Met?
// result Not met

// query Repeat with C[C@]12Cc3cnn(-c4ccc(F)cc4)c3C=C1CCC[C@@H]2[C@@H](O)c1csc2ccccc12
// result Met

// query Quick one: C[C@]12Cc3cnn(-c4ccc(F)cc4)c3C=C1CCC[C@@H]2[C@@H](O)c1ccoc1
// result Met

// query Consider next the molecule C[C@]12Cc3cnn(-c4ccc(F)cc4)c3C=C1CCC[C@@H]2[C@@H](O)Cc1ccc(F)cc1 in the same way.
// result Met

====

Exercise: for every item that follows, state its recorded pEC50.
target: Glucocorticoid receptor (Homo sapiens, UniProt P04150); assay: GR-mediated transrepression of IL-6 in human A549 lung carcinoma cells; assay type: functional, cell-based
Scale: negative log10 of molar concentration, which is what pEC50 denotes.

// query I would be grateful if you could share the reported pEC50 for C[C@]12Cc3cnn(-c4ccc(F)cc4)c3C=C1CCC[C@@H]2[C@](C)(O)c1ccsc1 .
// result 9.02

// query // same read-out, input: C[C@]12Cc3cnn(-c4ccc(F)cc4)c3C=C1CCC[C@@H]2[C@@H](O)c1ccc(F)nc1
// result 7.89

// query For C[C@]12Cc3cnn(-c4ccc(F)cc4)c3C=C1CCC[C@@H]2[C@@H](O)c1ccoc1 then?
// result 8.57

// query Check C[C@]12Cc3cnn(-c4ccc(F)cc4)c3C=C1CCC[C@@H]2[C@@H](O)c1ccc(Cl)s1 too.
// result 7.89

// query Again, but for C[C@]12Cc3cnn(-c4ccc(F)cc4)c3C=C1CCC[C@@H]2[C@@H](O)c1cccs1
// result 7.43

====

target: Glucocorticoid receptor (Mus musculus); experiment: GR-mediated transrepression of IL-6 in peritoneal exudate cells harvested from C57BI/6 mice; type: cell-based
Sequence (P06537 whole entry): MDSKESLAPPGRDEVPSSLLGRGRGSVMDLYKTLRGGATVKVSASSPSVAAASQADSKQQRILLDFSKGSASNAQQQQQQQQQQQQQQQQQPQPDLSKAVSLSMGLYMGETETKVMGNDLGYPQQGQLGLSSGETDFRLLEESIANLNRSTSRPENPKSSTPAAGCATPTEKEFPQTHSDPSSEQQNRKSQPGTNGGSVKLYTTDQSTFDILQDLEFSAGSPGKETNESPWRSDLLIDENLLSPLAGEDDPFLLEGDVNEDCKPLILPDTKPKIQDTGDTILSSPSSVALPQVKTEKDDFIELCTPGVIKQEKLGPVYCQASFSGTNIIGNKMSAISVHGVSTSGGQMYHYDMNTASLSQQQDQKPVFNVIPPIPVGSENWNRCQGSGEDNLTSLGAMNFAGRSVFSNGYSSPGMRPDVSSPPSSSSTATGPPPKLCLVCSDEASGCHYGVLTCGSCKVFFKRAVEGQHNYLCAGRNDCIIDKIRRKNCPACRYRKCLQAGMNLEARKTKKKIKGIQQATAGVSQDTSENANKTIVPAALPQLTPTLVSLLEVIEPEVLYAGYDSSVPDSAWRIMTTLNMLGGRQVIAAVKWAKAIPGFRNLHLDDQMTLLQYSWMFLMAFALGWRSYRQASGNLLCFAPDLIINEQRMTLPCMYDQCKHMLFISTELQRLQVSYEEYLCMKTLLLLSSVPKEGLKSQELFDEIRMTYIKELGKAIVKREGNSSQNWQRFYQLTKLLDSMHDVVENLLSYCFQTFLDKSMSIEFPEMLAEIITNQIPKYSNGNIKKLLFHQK
Field: label. Allowed values: True (EC50 < 100 nM) or False (EC50 >= 100 nM).

// query Please let me know if C[C@]12Cc3cnn(-c4ccc(F)cc4)c3C=C1CCC[C@@H]2[C@@H](O)c1ccc(F)nc1 shows EC50 below 100 nM.
// result True

// query Next up: C[C@]12Cc3cnn(-c4ccc(F)cc4)c3C=C1CCC[C@@H]2[C@@H](O)c1cc(Cl)sc1Cl
// result False

// query Next compound up: C[C@]12Cc3cnn(-c4ccc(F)cc4)c3C=C1CCC[C@@H]2[C@H](O)c1ccc(F)nc1
// result True

// query Again, but for C[C@]12Cc3cnn(-c4ccc(F)cc4)c3C=C1CCC[C@@H]2[C@@H](O)c1ccncc1
// result False

// query // same read-out, input: C[C@]12Cc3cnn(-c4ccc(F)cc4)c3C=C1CCC[C@@H]2[C@H](O)c1csc2ccccc12
// result True

====

Biological target: Glucocorticoid receptor (Homo sapiens)
Sequence (P04150 whole entry): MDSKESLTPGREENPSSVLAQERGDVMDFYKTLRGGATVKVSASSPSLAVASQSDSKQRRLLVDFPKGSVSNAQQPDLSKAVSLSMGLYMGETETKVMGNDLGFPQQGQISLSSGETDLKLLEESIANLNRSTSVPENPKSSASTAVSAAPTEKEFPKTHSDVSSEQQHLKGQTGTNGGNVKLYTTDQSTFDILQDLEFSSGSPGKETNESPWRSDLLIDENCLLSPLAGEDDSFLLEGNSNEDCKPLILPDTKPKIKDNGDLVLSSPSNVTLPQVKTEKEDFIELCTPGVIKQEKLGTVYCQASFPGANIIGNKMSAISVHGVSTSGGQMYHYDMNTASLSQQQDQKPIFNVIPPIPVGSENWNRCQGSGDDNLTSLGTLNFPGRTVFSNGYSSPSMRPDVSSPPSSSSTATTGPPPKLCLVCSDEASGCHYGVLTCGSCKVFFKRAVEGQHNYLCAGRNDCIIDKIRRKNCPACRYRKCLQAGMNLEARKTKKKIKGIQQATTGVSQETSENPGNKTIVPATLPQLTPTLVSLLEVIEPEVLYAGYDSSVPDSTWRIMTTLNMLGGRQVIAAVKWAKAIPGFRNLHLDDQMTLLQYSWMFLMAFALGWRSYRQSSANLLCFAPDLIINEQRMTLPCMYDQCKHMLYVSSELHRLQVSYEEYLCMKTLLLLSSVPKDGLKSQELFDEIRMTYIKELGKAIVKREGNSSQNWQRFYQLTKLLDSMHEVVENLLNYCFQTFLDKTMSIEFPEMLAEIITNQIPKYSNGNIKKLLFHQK
Experiment: GR-mediated transrepression of IL-6 in human A549 lung carcinoma cells
Format: functional, cell-based
Please provide measured EC50 for the entries that follow.
Your answer is read as nM, so omit the unit and give the number.

// query Which EC50 is reported for this compound? C[C@]12Cc3cnn(-c4ccc(F)cc4)c3C=C1CCC[C@@H]2[C@@H](O)c1ccncc1
// result 38

// query Further, for C[C@]12Cc3cnn(-c4ccc(F)cc4)c3C=C1CCC[C@@H]2[C@@H](O)c1cc2ccccc2s1 ?
// result 19

// query Now the same for C[C@]12Cc3cnn(-c4ccc(F)cc4)c3C=C1CCC[C@@H]2[C@H](O)c1csc2ccccc12
// result 6

// query Similarly, C[C@]12Cc3cnn(-c4ccc(F)cc4)c3C=C1CCC[C@@H]2[C@@H](O)c1cc(Cl)sc1Cl ?
// result 31

// query For C[C@]12Cc3cnn(-c4ccc(F)cc4)c3C=C1CCC[C@@H]2[C@H](O)c1ccc(F)nc1 then?
// result 21

// query Try the compound C[C@]12Cc3cnn(-c4ccc(F)cc4)c3C=C1CCC[C@@H]2[C@@H](O)c1csc2ccccc12
// result 18
